- ASSAY_NOTES: BSK_3C_SRB: Viability Assessment in the BioMAP Diversity Plus: 3C Assay (AID 2283023);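 note: cells read 24 h after compound dosing; fitted both ways against DMSO so a hit may be signal rise or drop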
- REPORTED_CONDITIONS: primary human endothelial cells (HUVEC)
Calls of active or inactive are those of the source. Rule for the calls: active = hit-call score of the fitted dose curve at least 0.9, where 1 is the maximum; inactive = score below 0.9.
Bench note: report the call from active, inactive

COMPOUND	CATEGORY_LABEL
CCOP(=S)(OCC)SCCSCC	inactive
CNC(=O)Oc1cccc2c1OC(C)(C)O2	active
CCOP(=S)(OCC)OC(Cl)C(Cl)(Cl)Cl (stereo unspecified)	active
CCOP(=O)(SC(C)CC)N1CCSC1=O (stereo unspecified)	inactive
CC[C@H](C)[C@H]1O[C@]2(C=C[C@@H]1C)C[C@@H]1C[C@@H](C/C=C(\C)[C@@H](O[C@H]3C[C@H](OC)[C@@H](O[C@H]4C[C@H](OC)[C@@H](NC)[C@H](C)O4)[C@H](C)O3)[C@@H](C)/C=C/C=C3\CO[C@@H]4[C@H](O)C(C)=C[C@@H](C(=O)O1)[C@]34O)O2	active

Exercise: Entry CCCCOC(=O)c1ccccc1C(=O)O : call = ?
Solution: inactive

Exercise: Record lookup: outcome of this test for CN(C)C(=O)Nc1cccc(C(F)(F)F)c1 ?
Solution: inactive

Exercise: Test call, this compound: CNc1cnn(-c2cccc(C(F)(F)F)c2)c(=O)c1Cl
Solution: inactive

Exercise: So what was the verdict on CCCSP(=O)(OCC)Oc1ccc(Br)cc1Cl (stereo unspecified) in this test?
Solution: active

Exercise: What was the test verdict on CON=C(C(=O)OC)c1ccccc1CON=C(C)c1cccc(C(F)(F)F)c1 ?
Solution: active

Exercise: What did this assay record as the result for CCOP(=S)(Oc1cnc(C(C)(C)C)nc1)OC(C)C (stereo unspecified) ?
Solution: active

Exercise: Tell me the assay call for CCCOCC(=Nc1ccc(Cl)cc1C(F)(F)F)n1ccnc1 please.
Solution: active

Exercise: // param item: COc1cccc(C(=O)NN(C(=O)c2cc(C)cc(C)c2)C(C)(C)C)c1C ; yields the recorded call
Solution: inactive

Exercise: Would you mind telling me which call this test gave CN(C)NC(=O)CCC(=O)O ?
Solution: inactive

Exercise: Which outcome was entered for the compound C#CC(C)(C)NC(=O)c1cc(Cl)cc(Cl)c1 in this test?
Solution: inactive

Exercise: Could you check what this test reported for COP(=O)(NC(C)=O)SC (stereo unspecified) ?
Solution: active

* * *

- MEASURED_ON: human Retinoic Acid Receptor gamma (RARg), RARG (gene 5916) (UniProt P13631)
- Sequence (P13631 whole entry, looked up): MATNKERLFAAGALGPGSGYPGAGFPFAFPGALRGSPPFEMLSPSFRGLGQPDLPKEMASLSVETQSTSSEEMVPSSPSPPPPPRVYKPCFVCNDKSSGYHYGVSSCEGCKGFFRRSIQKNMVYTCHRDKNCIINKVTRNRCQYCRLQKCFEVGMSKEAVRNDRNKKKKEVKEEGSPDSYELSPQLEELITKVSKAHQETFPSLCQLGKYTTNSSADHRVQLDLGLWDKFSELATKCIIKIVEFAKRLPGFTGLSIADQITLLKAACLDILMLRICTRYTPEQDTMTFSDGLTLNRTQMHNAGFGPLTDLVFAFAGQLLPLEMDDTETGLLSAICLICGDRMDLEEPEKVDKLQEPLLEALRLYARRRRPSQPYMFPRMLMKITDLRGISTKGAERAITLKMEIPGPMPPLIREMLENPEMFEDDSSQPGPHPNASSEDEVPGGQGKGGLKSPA
- ASSAY_NOTES: ATG_RARg_TRANS: Attagene TRANS-FACTORIAL HepG2 Assay for human Retinoic Acid Receptor gamma (RARg) (AID 2283009)
Inconclusive results are not listed. The source made the active and inactive calls. How the source made its calls: active means hit-call score of the fitted dose curve at least 0.9, where 1 is the maximum; inconclusive means response in the unintended direction; inactive means score below 0.9.
ATTRIBUTE_MEASURED: outcome

In [3]: df
Out[3]:
                                   molecule  obs_value
0  O=C(O)c1cc(Oc2ccc(C(F)(F)F)cc2Cl)ccc1[N+](=O)[O-]   inactive
1  CON=C(C(=O)OC)c1ccccc1CON=C(C)c1cccc(C(F)(F)F)c1   inactive
2                      Nc1nc(N)nc(NC2CC2)n1   inactive
3     CN1COCN(Cc2cnc(Cl)s2)C1=N[N+](=O)[O-]   inactive
4               Cc1cc(C2CC2)nc(Nc2ccccc2)n1   inactive
5  CCCOc1nn(C(=O)NS(=O)(=O)c2ccccc2C(=O)OC)c(=O)n1C   inactive

Exercise: Could you tell me which outcome is on file for CCCSP(=O)(OCC)Oc1ccc(Br)cc1Cl (configuration not stated) ?
Solution: inactive

Exercise: # input molecule: C#CCC1=C(C)C(OC(=O)C2C(C=C(C)C)C2(C)C)CC1=O (configuration not stated) ; wanted: its outcome
Solution: inactive

Exercise: I would be grateful if you could share the reported outcome for CC(C1CC1)C(O)(Cn1cncn1)c1ccc(Cl)cc1 (configuration not stated) .
Solution: inactive

Exercise: Entry C=C(C)[C@H]1Cc2c(ccc3c2O[C@@H]2COc4cc(OC)c(OC)cc4[C@@H]2C3=O)O1 has what outcome?
Solution: inactive

Exercise: Fill in the blank: the reported outcome of CSc1nnc(C(C)(C)C)c(=O)n1N is ____.
Solution: inactive

Exercise: What value of outcome has been reported for the following molecule? CSc1nc(NC(C)C)nc(NC(C)C)n1
Solution: inactive

* * *

- Read-out: Vascular cell adhesion molecule 1 (VCAM1), VCAM1 (gene 7412)
- ASSAY_NOTES: BSK_4H_VCAM1: BioMAP Diversity Plus: 4H Assay for Vascular cell adhesion molecule 1 (VCAM1) Biomarker Activity (AID 2283033);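 note: cell-surface VCAM-1 protein measured by ELISA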
- REPORTED_CONDITIONS: primary human endothelial cells (HUVEC); actives raise or lower the signal
The source made the active and inactive calls. How the source made its calls: active means hit-call score of the fitted dose curve at least 0.9, where 1 is the maximum; inactive means score below 0.9.
The reply should be one of these categories: active, inactive

Answered examples (3):
COMPOUND	CATEGORY_LABEL
COc1cc(OC)nc(Sc2cccc(Cl)c2C(=O)O)n1	inactive
CSc1nc(NC(C)C)nc(NC(C)C)n1	inactive
CN(C)NC(=O)CCC(=O)O	inactive

Exercise: Hi, do you know how CCOP(=S)(OCC)OC(Cl)C(Cl)(Cl)Cl (configuration not stated) came out in this test?
Solution: inactive

* * *

- ASSAY_NOTES: CCTE_Mundy_HCI_hNP1_Casp3_7: CCTE's Caspase-Glo 3/7 Assay in human neuroprogenitor cells for Apoptosis, Mundy Lab (AID 2284240)
Activity calls are given as the source filed them. The calls were made as follows: active = hit-call score of the fitted dose curve at least 0.9, where 1 is the maximum; inactive = score below 0.9.
Your answer must be one of the following: true (1) for active, false (0) for inactive

Answered cases to consult:
                                   compound  category_label
0  CN(C)[C@@H]1C(=O)C(C(N)=O)=C(O)[C@@]2(O)C(=O)C3=C(O)c4c(O)cccc4[C@@](C)(O)[C@H]3[C@H](O)[C@@H]12        true (1)
1  CSC1=N[C@@](C)(c2ccccc2)C(=O)N1Nc1ccccc1       false (0)
2  COP(=O)(NC(C)=O)SC (configuration not stated)       false (0)
3                CC(=NC#N)N(C)Cc1ccc(Cl)nc1       false (0)
4  CCOC(=O)CC(SP(=O)(OC)OC)C(=O)OCC (configuration not stated)       false (0)
5  COP(=O)(OC)C(O)C(Cl)(Cl)Cl (configuration not stated)        true (1)
6     CN1COCN(Cc2cnc(Cl)s2)C1=N[N+](=O)[O-]       false (0)
7         CC(C)N(C(=O)SCC(Cl)=C(Cl)Cl)C(C)C       false (0)

Query compound follows.
Exercise: // return assay outcome for O=[N+]([O-])c1cc(C(F)(F)F)c(Cl)c([N+](=O)[O-])c1Nc1ncc(C(F)(F)F)cc1Cl
Solution: true (1)

* * *

- ASSAY_NOTES: Tanguay_ZF_120hpf_TR_legacy: (Legacy) Oregon State University Tanguay Lab 120 Hour Post-fertilization zebrafish Assay for Touch Response (AID 2283667)
Inconclusive results are not listed. Active and inactive are the calls of the source. The calls were made as follows: active = hit-call score of the fitted dose curve at least 0.9, where 1 is the maximum; inconclusive = response in the unintended direction; inactive = score below 0.9.
Lab note: assign the record to one of active, inactive

Sample answers from the record:
COMPOUND	CATEGORY_LABEL
COc1cc(OC)nc(Sc2cccc(Cl)c2C(=O)O)n1	inactive
COP(=O)(NC(C)=O)SC (stereo not drawn)	inactive
CCCOCC(=Nc1ccc(Cl)cc1C(F)(F)F)n1ccnc1	inactive
CC(C)=CC1C(C(=O)OCN2C(=O)C3=C(CCCC3)C2=O)C1(C)C (stereo not drawn)	inactive
CCCCN(CC)c1c([N+](=O)[O-])cc(C(F)(F)F)cc1[N+](=O)[O-]	inactive

Exercise: For CC1=NNC(=O)N(/N=C/c2cccnc2)C1 , which call appears in the assay record?
Solution: inactive

Exercise: Assay outcome for CCOP(=O)(OCC)Oc1cc(C)nc(C(C)C)n1 : what was it?
Solution: inactive

Exercise: Dear colleague, could you share the recorded outcome for CC[C@H](C)[C@H]1O[C@]2(C=C[C@@H]1C)C[C@@H]1C[C@@H](C/C=C(\C)[C@@H](O[C@H]3C[C@H](OC)[C@@H](O[C@H]4C[C@H](OC)[C@@H](NC)[C@H](C)O4)[C@H](C)O3)[C@@H](C)/C=C/C=C3\CO[C@@H]4[C@H](O)C(C)=C[C@@H](C(=O)O1)[C@]34O)O2 when you have a moment?
Solution: active

Exercise: Dear all, I need the recorded test outcome for CCOP(=S)(OCC)SCCSCC , thank you.
Solution: inactive

Exercise: What outcome does the record of this test show for Nc1c(Cl)cc([N+](=O)[O-])cc1Cl ?
Solution: active

* * *

- ASSAY_NOTES: Tanguay_ZF_120hpf_SWIM_legacy: (Legacy) Oregon State University Tanguay Lab 120 Hour Post-fertilization zebrafish Assay for Swim Bladder Malformation (AID 2283654);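 note: swim bladder malformation in each larva scored yes or no under brightfield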
Records with an inconclusive call do not appear. Active and inactive are the calls of the source. Rule for the calls: active = hit-call score of the fitted dose curve at least 0.9, where 1 is the maximum; inconclusive = response in the unintended direction; inactive = score below 0.9.
ATTRIBUTE_MEASURED: AC50

Worked examples follow.
COMPOUND	OBS_VALUE
CCCCN(CC)c1c([N+](=O)[O-])cc(C(F)(F)F)cc1[N+](=O)[O-]	inactive
CCOP(=O)(SC(C)CC)N1CCSC1=O (stereo not drawn)	inactive
COc1cccc(C(=O)NN(C(=O)c2cc(C)cc(C)c2)C(C)(C)C)c1C	inactive
C[Si](Cn1cncn1)(c1ccc(F)cc1)c1ccc(F)cc1	inactive
CC(C1CC1)C(O)(Cn1cncn1)c1ccc(Cl)cc1 (stereo not drawn)	32.6 µM (active)
Cc1nn(-c2cc(NS(C)(=O)=O)c(Cl)cc2Cl)c(=O)n1C(F)F	inactive

Exercise: Recorded AC50 of COc1ccc(C(=CC(=O)N2CCOCC2)c2ccc(Cl)cc2)cc1OC , please.
Solution: 63.3 µM (active)

Exercise: Which AC50 reading was recorded for the compound CC[C@H](C)[C@H]1O[C@]2(C=C[C@@H]1C)C[C@@H]1C[C@@H](C/C=C(\C)[C@@H](O[C@H]3C[C@H](OC)[C@@H](O[C@H]4C[C@H](OC)[C@@H](NC)[C@H](C)O4)[C@H](C)O3)[C@@H](C)/C=C/C=C3\CO[C@@H]4[C@H](O)C(C)=C[C@@H](C(=O)O1)[C@]34O)O2 ?
Solution: inactive
